FYI, the data here is from patent US11673892B2.

List of Ki tested on human RIP1 kinase domain (2-375) (Homo sapiens, UniProt Q13546).
Sequence (Q13546 2-375): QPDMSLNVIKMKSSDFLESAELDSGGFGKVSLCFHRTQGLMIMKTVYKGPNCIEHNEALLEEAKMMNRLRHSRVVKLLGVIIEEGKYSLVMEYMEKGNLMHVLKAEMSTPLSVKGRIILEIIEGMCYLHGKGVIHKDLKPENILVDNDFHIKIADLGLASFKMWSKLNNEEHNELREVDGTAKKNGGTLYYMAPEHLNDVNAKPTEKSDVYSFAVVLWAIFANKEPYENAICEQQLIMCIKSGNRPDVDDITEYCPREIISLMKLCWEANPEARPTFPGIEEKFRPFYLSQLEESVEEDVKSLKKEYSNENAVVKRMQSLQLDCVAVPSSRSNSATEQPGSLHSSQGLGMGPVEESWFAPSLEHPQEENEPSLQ
Give a bare numeral; the unit nM is implied.

> print(dat)
                                   molecule  assay.metric  reading
1  F[C@H]1C[C@@H](c2ccccc2)n2nc(-n3ncc4cnccc43)nc21 (single isomer, unassigned)            Ki      810

# input Find the recorded Ki belonging to F[C@H]1C[C@@H](c2ccccc2)n2nc(-n3ncc4ncccc43)nc21 (single isomer, unassigned) and report it.
# output 29

# input # Ki lookup, item F[C@@H]1C[C@H](c2ccccc2)n2nc(C(F)(F)C3CC3)nc21 (racemic)
# output 27

# input Requested read-out: Ki. Entry: Fc1ccccc1[C@@H]1C[C@H](F)c2nc(C(F)(F)C3CC3)nn21 (single isomer, unassigned)
# output 4

# input Look up Ki for this molecule: F[C@H]1C[C@@H](c2ccccc2)n2nc([C@H](F)C3CC3)nc21 (single isomer, unassigned)
# output 3.5

# input Requested field: Ki. Item: F[C@H]1C[C@@H](c2ccccc2)n2nc([C@H](F)C34CC(C3)C4)nc21 (single isomer, unassigned)
# output 230

# input Need Ki, item F[C@@H]1C[C@H]1C(F)(F)c1nc2n(n1)[C@H](c1ccccc1)C[C@@H]2F (racemic)
# output 4

# input Look up Ki: CC[C@](C)(F)c1nc2n(n1)[C@H](c1ccccc1)C[C@@H]2F (single isomer, unassigned)
# output 33

# input Can you share its Ki? I mean this molecule: CCCc1nc2n(n1)[C@H](c1ccccc1F)CC2 (single isomer, unassigned)
# output 114

# input Endpoint output: Ki of O[C@@H](c1nc2n(n1)[C@H](c1ccccc1)C[C@@H]2F)C1CC1 (single isomer, unassigned) . Value?
# output 83

# input Given F[C@H]1C[C@@H](c2ccccc2)n2nc(CC3CC3(F)F)nc21 (some centres unmarked) , state its recorded Ki.
# output 4

# input Ki lookup needed for F[C@H]1C[C@@H](c2ccccc2)n2nc(-n3cncn3)nc21 (single isomer, unassigned) , thanks.
# output 190

# input Quick check: Ki of Cc1ccnn1-c1nc2n(n1)[C@H](c1ccccc1)C[C@@H]2F (single isomer, unassigned) ?
# output 92

# input Entry under review: Cc1c(C#N)cnn1-c1nc2n(n1)[C@H](c1ccccc1)C[C@@H]2F (single isomer, unassigned) . Reported Ki?
# output 5

* * *

A short record of Ki observed with human RIP1 kinase domain (2-375) (Homo sapiens) follows.
Returns: string containing the number followed by the unit.

The following molecules have reported results that may help.
> print(dat)
                                   molecule  reading
1  CC[C@@H](F)c1nc2n(n1)[C@H](c1ccccc1)C[C@@H]2F (racemic) [Example 7]     4 nM
2  F[C@H]1C[C@@H](c2ccccc2)n2nc(C#CC3CC3)nc21 [Example 43]   450 nM
3  CC1(C(F)(F)c2nc3n(n2)[C@H](c2ccccc2)C[C@@H]3F)COC1 (single isomer, unassigned) [Example 17]    34 nM
4  Cc1nccn1-c1nc2n(n1)[C@H](c1ccccc1)C[C@@H]2F (single isomer, unassigned) [Example 67]   890 nM
5  N#Cc1ccn(-c2nc3n(n2)[C@H](c2ccccc2)C[C@@H]3F)n1 (single isomer, unassigned) [Example 53]   280 nM
6  CC#Cc1nc2n(n1)[C@H](c1ccccc1)C[C@@H]2F [Example 44]   890 nM

# input I'm curious: which Ki was measured for CCOC(=O)[C@@H]1C[C@H]1c1nc2n(n1)[C@H](c1ccccc1)C[C@@H]2F (mixture of isomers) [Example 21] tested on human RIP1 kinase domain (2-375) (Homo sapiens)?
# output 100 nM

# input Form field - read-out: Ki; system: human RIP1 kinase domain (2-375) (Homo sapiens); submitted item: F[C@H]1C[C@@H](c2ccccc2)n2nc(C3CC3(F)F)nc21 (some centres unmarked) [Example 28]
# output 70 nM
